tested on: Stomach; assay: Biodistribution in ddY mouse stomach at 0.2 to 0.3 uCi, iv after 2 mins; assay type: ADME, organism-based; conditions: in vivo
Assay Metric: Drug uptake (%ID)

Smiles Code: CN(C)c1ccc(/C=C/C(=O)c2ccc([125I])cc2)cc1
Units: %ID
Measured Result: 0.96
//
Smiles Code: Nc1ccc(/C=C/C(=O)c2ccc([125I])cc2)cc1
Units: %ID
Measured Result: 0.87
//
Smiles Code: CNc1ccc(/C=C/C(=O)c2ccc([125I])cc2)cc1
Units: %ID
Measured Result: 1.02
//
Smiles Code: COc1ccc(/C=C/C(=O)c2ccc([125I])cc2)cc1
Units: %ID
Measured Result: 0.9
//
Smiles Code: O=C(/C=C/c1ccc(O)cc1)c1ccc([125I])cc1
Units: %ID
Measured Result: 1.22

* * *

system: Intestine; assay: Biodistribution in ddY mouse intestine at 0.2 to 0.3 uCi, iv after 30 mins; assay type: ADME, organism-based; conditions: in vivo, 0.5 h
Assay Metric: Drug uptake (% ID/g)

Smiles Code: O=C(/C=C/c1ccc(O)cc1)c1ccc([125I])cc1
Drug uptake [% ID/g]: 12.94

Smiles Code: CN(C)c1ccc(/C=C/C(=O)c2ccc([125I])cc2)cc1
Drug uptake [% ID/g]: 10.38

Smiles Code: COc1ccc(/C=C/C(=O)c2ccc([125I])cc2)cc1
Drug uptake [% ID/g]: 10.19

Smiles Code: CNc1ccc(/C=C/C(=O)c2ccc([125I])cc2)cc1
Drug uptake [% ID/g]: 10.46

Smiles Code: Nc1ccc(/C=C/C(=O)c2ccc([125I])cc2)cc1
Drug uptake [% ID/g]: 11.27

* * *

assay: Displacement of [125I](E)-3-(4-(Dimethylamino-phenyl)-1-(4-iodophenyl)prop-2-en-1-one from beta amyloid(1-42) aggregates; design: species or system Homo sapiens
pKi: −log10 of the molar value.
Assay Metric: pKi

Here is how some compounds turned out for pKi.
Smiles Code: O=C(/C=C/c1ccc(O)cc1)c1ccc(I)cc1
pKi: 7.67

Smiles Code: COc1ccc(/C=C/C(=O)c2ccc(I)cc2)cc1
pKi: 8.20

[1] CN(C)c1ccc(/C=C/C(=O)c2ccc(I)cc2)cc1
[2] Nc1ccc(/C=C/C(=O)c2ccc(I)cc2)cc1
[3] CNc1ccc(/C=C/C(=O)c2ccc(I)cc2)cc1
Order by pKi, ascending. Response field: labels, in requested order.
2, 3, 1

* * *

tested on: Kidney; assay: Biodistribution in ddY mouse kidney at 0.2 to 0.3 uCi, iv after 30 mins; format: ADME, organism-based; conditions: in vivo, 0.5 h
Assay Metric: Drug uptake (% ID/g)

// solved cases for Drug uptake follow
Smiles Code: O=C(/C=C/c1ccc(O)cc1)c1ccc([125I])cc1
Drug uptake, % ID/g: 3.51
//
Smiles Code: COc1ccc(/C=C/C(=O)c2ccc([125I])cc2)cc1
Drug uptake, % ID/g: 3.27
//
Smiles Code: CN(C)c1ccc(/C=C/C(=O)c2ccc([125I])cc2)cc1
Drug uptake, % ID/g: 11.62

[I] Nc1ccc(/C=C/C(=O)c2ccc([125I])cc2)cc1
[II] CNc1ccc(/C=C/C(=O)c2ccc([125I])cc2)cc1
Lab note: record which item had the higher Drug uptake, I or II . Please respond with the label that marks your chosen entry.
II
